species on record: Rattus norvegicus; experiment: Open TG-GATES - Regimen: Daily Repeat; assay type: toxicity, organism-based, Sprague-Dawley; set-up: regimen Daily Repeat, gender Male, age 6 weeks; conditions: in vivo, po, 1000 mg/kg, […], tissue Plasma, route gavage, dose level High, time 14 day
Quantity kind: BUN

// solved cases for BUN follow
CC(=O)[C@@]1(O)CC[C@H]2[C@@H]3C=C(Cl)C4=CC(=O)CC[C@]4(C)[C@H]3CC[C@@]21C | 18.6 mg/dL
CCCCNC(=O)NS(=O)(=O)c1ccc(C)cc1 [TOLBUTAMIDE] | 15 mg/dL
O=C(O)c1ccccc1Nc1ccccc1 | 118.3 mg/dL

Data request: Field request: BUN | item: CC(S)C(=O)NCC(=O)O (centres undefined)
Data returned: 23 mg/dL

----------
Record form. Attribute: Eos. Fill in for each entry.
species on record: Rattus norvegicus; test: Open TG-GATES - Regimen: Daily Repeat; assay type: toxicity, organism-based, Sprague-Dawley; set-up: regimen Daily Repeat, gender Male, age 6 weeks; conditions: in vivo, po, 100 mg/kg, 72 h, tissue Blood, route gavage, dose level Low, time 3 day
Remember to put the unit after the number in your answer.

// solved cases for Eos follow
CC(=O)[C@@]1(O)CC[C@H]2[C@@H]3C=C(Cl)C4=CC(=O)CC[C@]4(C)[C@H]3CC[C@@]21C | 1%
CC(S)C(=O)NCC(=O)O (centres undefined) | 1%
O=C(O)c1ccccc1Nc1ccccc1 | 1%

Data request: Field request: Eos | item: CCCCNC(=O)NS(=O)(=O)c1ccc(C)cc1 [TOLBUTAMIDE]
Data returned: 1.2%

----------
species on record: Rattus norvegicus; experiment: Open TG-GATES - Regimen: Daily Repeat; assay type: toxicity, organism-based, Sprague-Dawley; design: regimen Daily Repeat, gender Male, age 6 weeks; settings: in vivo, po, 0 mg/kg, […], tissue Plasma, route gavage, dose level Control, time 14 day
Quantity kind: TG (mg/dL)
One number for each entry, in mg/dL.

// solved cases for TG follow
CC(S)C(=O)NCC(=O)O (stereo not drawn) | 135.6
O=c1ccc2ccccc2o1 | 104
NS(=O)(=O)c1cc(C(=O)O)c(NCc2ccco2)cc1Cl [FUROSEMIDE] | 157.2

Hey, quick one: what's TG for each of these?
1. CCCCNC(=O)NS(=O)(=O)c1ccc(C)cc1 [TOLBUTAMIDE]
2. CCN(CC)C(=S)SSC(=S)N(CC)CC
3. Nc1ccc(Cc2ccc(N)cc2)cc1
4. COc1ccc([C@@H]2Sc3ccccc3N(CCN(C)C)C(=O)[C@@H]2OC(C)=O)cc1
5. CN(C/C=C/C#CC(C)(C)C)Cc1cccc2ccccc12

Data returned:
131.2
91.4
133.4
180.4
108

----------
Record form. Attribute: ALP. Fill in for each entry.
species: Rattus norvegicus; experiment: Open TG-GATES - Regimen: Daily Repeat; type: toxicity, organism-based, Sprague-Dawley; design: regimen Daily Repeat, gender Male, age 6 weeks; conditions: in vivo, po, 0 mg/kg, […], tissue Plasma, route gavage, dose level Control, time 14 day
Numbers only, in IU/L.

// solved cases for ALP follow
CN(CCOc1ccc(CC2SC(=O)NC2=O)cc1)c1ccccn1.O=C(O)/C=C\C(=O)O (configuration not stated) [ROSIGLITAZONE MALEATE] | 1411
CCO | 678.2
CC(S)C(=O)NCC(=O)O (configuration not stated) | 1485.6

Hey, quick one: what's ALP for each of these?
1. CC(=O)[C@@]1(O)CC[C@H]2[C@@H]3C=C(Cl)C4=CC(=O)CC[C@]4(C)[C@H]3CC[C@@]21C
2. CN(C/C=C/C#CC(C)(C)C)Cc1cccc2ccccc12
3. CCN(CC)C(=S)SSC(=S)N(CC)CC
4. O=c1ccc2ccccc2o1

Data returned:
1. 1391
2. 734.4
3. 1430.8
4. 840.4

Hey, quick one: what's ALP for each of these?
1. CCCCNC(=O)NS(=O)(=O)c1ccc(C)cc1 [TOLBUTAMIDE]
2. NS(=O)(=O)c1cc(C(=O)O)c(NCc2ccco2)cc1Cl [FUROSEMIDE]
3. Nc1ccc(Cc2ccc(N)cc2)cc1
4. CCCCC1C(=O)N(c2ccccc2)N(c2ccccc2)C1=O
5. O=C(O)c1ccccc1Nc1ccccc1

Data returned:
1: 1297.4; 2: 1456.8; 3: 1483.2; 4: 748; 5: 1698.4
